# maps each entry to its melting point
The reply should be a number in °C, with the unit left off.

Input: Could you please provide reported melting point for Oc1cccnc1O ? Thanks!
Output: 245

Input: Could you please provide reported melting point for COc1ccccc1C1(C)CCc2oc3c(Br)cc(Br)cc3c2-c2oc(C)cc21 (stereo unspecified) ? Thanks!
Output: 194

Input: Could you please provide reported melting point for O=C(O)c1sc(Br)c2c1OCCO2 ? Thanks!
Output: 150

----------
Label Met for high-side melting point (at or above 100 °C) and Not met for low-side melting point (below it).

molecule="C=CC1CO1 (stereo unspecified)" class_assignment="Not met"
molecule="CC1CC(C)CC(O)C1 (stereo unspecified)" class_assignment="Not met"
molecule="CC12CCC3C(CCC4(C)CC(=O)CCC34C)C1CCC2=O (stereo unspecified)" class_assignment=Met
molecule=O=C(O)c1cc(F)c(F)cc1[N+](=O)[O-] class_assignment=Met
molecule=Clc1ccc(-c2nnn[nH]2)cc1Cl class_assignment=Met
molecule="CC(=O)N1CCCC(C)C1 (stereo unspecified)" class_assignment="Not met"
molecule=O=C(Nc1c(Cl)cccc1Cl)C(C(F)(F)F)C(F)(F)F class_assignment=Met
molecule=O=[N+]([O-])c1ccc(-c2nnc3n2CN(c2ccccn2)CS3)cc1 class_assignment=Met

Input: Hi, just wondering whether Brc1ccc2oc3ccccc3c2c1 shows melting point of 100 °C or higher.
Output: Met

Input: Hi, just wondering whether CN(C)C(=O)SCCCCOc1ccccc1 shows melting point of 100 °C or higher.
Output: Not met

Input: Hi, just wondering whether Clc1ccc(CSc2ccc(Cl)cc2)cc1 shows melting point of 100 °C or higher.
Output: Not met

----------
# maps each entry to its melting point
The reply should be a number in °C, with the unit left off.

Worked set:
molecule="O=C1OCCOC(=O)C2CCCCC2C(=O)OCCOC(=O)C2CCCCC12 (stereo unspecified)" measured_parameter="melting point" unit_abbreviation=°C observed=210
molecule="CC1CC(=O)CC2CCC3C4CCC(O)C4(C)CCC3C12C (stereo unspecified)" measured_parameter="melting point" unit_abbreviation=°C observed=204

Input: Could you please provide reported melting point for CCOC(=O)C(CO)(CO)C(=O)OCC ? Thanks!
Output: 50

Input: Could you please provide reported melting point for O=[N+]([O-])c1c(F)ccc(Cl)c1F ? Thanks!
Output: 47

----------
# maps each entry to its melting point
The reply should be a number in °C, with the unit left off.

compound="CC(=O)NC(CC(=O)O)C(=O)O (stereo not given)" measured_parameter="melting point" observed=138
compound="Oc1ccc2c3c1OC1C(O)C=CC4C(C2)NCCC341 (stereo not given)" measured_parameter="melting point" observed=273
compound="COc1ccc2c(c1OC)C(=O)OC2C1c2c(cc3c(c2OC)OCO3)CCN1C (stereo not given)" measured_parameter="melting point" observed=176
compound=COc1ccccc1-n1[nH]cc2c(=O)ncnc1-2 measured_parameter="melting point" observed=271

Input: Could you please provide reported melting point for CC(=O)c1nn2c(C(F)(F)F)nnc2s1 ? Thanks!
Output: 200

Input: Could you please provide reported melting point for O=[N+]([O-])c1cccnc1Cl ? Thanks!
Output: 101

Input: Could you please provide reported melting point for Cc1ccc(S(=O)(=O)N/N=C2\C=CC(C)(c3ccccc3)CC2)cc1 (stereo not given) ? Thanks!
Output: 147

Input: Could you please provide reported melting point for CCCCCCCCCCCCCCCCI ? Thanks!
Output: 22

Input: Could you please provide reported melting point for Cc1cc2nc3c(=O)[nH]c(=O)nc-3n(CC(O)C(O)C(O)CO)c2cc1C (stereo not given) ? Thanks!
Output: 290

Input: Could you please provide reported melting point for O=C(C=CN(O)c1ccccc1)c1ccc2c(c1)CCCC2 ? Thanks!
Output: 148

Input: Could you please provide reported melting point for c1ccc(-c2c3ccccc3c(-c3ccccc3)c3c(-c4ccccc4)c4ccccc4c(-c4ccccc4)c23)cc1 ? Thanks!
Output: 332

Input: Could you please provide reported melting point for Oc1ccc2ccc3cccc4ccc1c2c34 ? Thanks!
Output: 180
